From: paper PMC8878748

System: MeV
CONDITION_DETAILS: 2 h
Where a SMILES comes first, the peptide text is derived from it. [ ]: non-standard residue; d: D form.

[
  {
    "COMPOUND": "CC[C@H](C)[C@H](NC(=O)[C@H](CCCNC(=N)N)NC(=O)[C@H]1CCCN1C(=O)[C@@H](CC(C)C)NC(=O)[C@H](Cc1ccccc1)NC(=O)[C@H](CCCCN)NC(=O)[C@H](CO)NC(=O)[C@H](Cc1ccccc1)NC(=O)[C@H](Cc1c[nH]c2ccccc12)NC(=O)[C@@H]1CCCN1C(=O)[C@@H](NC(=O)[C@@H](N)Cc1ccccc1)C(C)C)C(=O)N[C@@H](CC(C)C)C(N)=O [TL3] (H-FVPWFSKF[dL][dP]RIL-NH2)",
    "IC90": "> 50 µM"
  },
  {
    "COMPOUND": "CC[C@H](C)[C@H](NC(=O)[C@H](CCCNC(=N)N)NC(=O)[C@@H]1CCCN1C(=O)[C@@H](CC(C)C)NC(=O)[C@H](Cc1ccccc1)NC(=O)[C@H](CCCCN)NC(=O)[C@H](CO)NC(=O)[C@H](Cc1ccccc1)NC(=O)[C@H](Cc1c[nH]c2ccccc12)NC(=O)[C@@H]1CCCN1C(=O)[C@@H](NC(=O)[C@@H](N)Cc1ccccc1)C(C)C)C(=O)N[C@@H](CC(C)C)C(N)=O [TL2] (H-FVPWFSKF[dL]PRIL-NH2)",
    "IC90": "> 50 µM"
  },
  {
    "COMPOUND": "CC[C@H](C)[C@H](NC(=O)[C@H](CCCNC(=N)N)NC(=O)[C@@H](CCCCN)NC(=O)[C@@H](CC(C)C)NC(=O)[C@H](Cc1ccccc1)NC(=O)[C@H](CCCCN)NC(=O)[C@H](CO)NC(=O)[C@H](Cc1ccccc1)NC(=O)[C@H](Cc1c[nH]c2ccccc12)NC(=O)[C@@H]1CCCN1C(=O)[C@@H](NC(=O)[C@@H](N)Cc1ccccc1)C(C)C)C(=O)N[C@@H](CC(C)C)C(N)=O [TL9] (H-FVPWFSKF[dL][dK]RIL-NH2)",
    "IC90": "> 50 µM"
  }
]
